The measurements presented in this section are drawn from patent US20240336642A1.

Assay: Metabolic stability of exemplified compounds (Example 4)
Assay type: in vitro ADME
Details: Human liver microsomes
MEASUREMENT TYPE: microsomal CLint

N#Cc1nc(-c2cc(Cl)cc(Cl)c2Cl)oc1NCC#CCOCc1ccccc1 : 100 to 200 µL/min/mg
N#Cc1nc(-c2cc(Cl)cc(Cl)c2Cl)oc1NCCOCCO : 20 to 100 µL/min/mg

Ask | What value of measured microsomal CLint is listed for COCCNc1oc(-c2cc(Cl)cc(Cl)c2Cl)nc1C#N ?
Reply | 20 to 100 µL/min/mg

====

The following compounds are listed with their measured Emax values.
Biological target: h12/15-LOX (Homo sapiens (Human), UniProt P16050)
Sequence (P16050 whole entry): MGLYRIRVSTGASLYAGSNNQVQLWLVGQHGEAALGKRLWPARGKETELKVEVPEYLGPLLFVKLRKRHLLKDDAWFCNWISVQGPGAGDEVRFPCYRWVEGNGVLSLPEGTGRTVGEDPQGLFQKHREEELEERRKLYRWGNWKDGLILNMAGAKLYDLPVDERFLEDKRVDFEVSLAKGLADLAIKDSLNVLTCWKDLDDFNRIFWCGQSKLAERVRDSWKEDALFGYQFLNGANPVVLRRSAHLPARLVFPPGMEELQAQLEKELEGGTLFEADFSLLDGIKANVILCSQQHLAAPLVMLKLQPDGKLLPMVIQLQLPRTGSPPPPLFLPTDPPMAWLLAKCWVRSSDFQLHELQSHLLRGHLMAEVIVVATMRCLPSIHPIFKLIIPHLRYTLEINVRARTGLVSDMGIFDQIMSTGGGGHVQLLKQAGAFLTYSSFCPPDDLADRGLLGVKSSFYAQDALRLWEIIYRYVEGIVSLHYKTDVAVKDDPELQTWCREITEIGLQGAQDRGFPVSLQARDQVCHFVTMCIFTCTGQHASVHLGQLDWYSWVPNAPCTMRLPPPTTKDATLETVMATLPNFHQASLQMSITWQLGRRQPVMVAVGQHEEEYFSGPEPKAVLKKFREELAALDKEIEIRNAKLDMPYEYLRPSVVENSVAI
Assay: 12/15-LOX enzyme inhibition IC50 assay (Examples 1 and 2)
Type: biochemical
Conditions: h12/15-LOX; read-out: Max % inhibition
Hi! Could you send only the number? It should be in %, unit omitted.

N#Cc1nc(-c2cc(Cl)cc(Cl)c2Cl)oc1NCCOCCNCC(F)(F)F : 77
COCCOCCNc1oc(-c2cc(Cl)cc(C)c2Cl)nc1C#N : 100
COCCNc1oc(-c2cc(Cl)cc(Cl)c2C)nc1C#N : 89
COCCNc1oc(-c2cc(Cl)cc(C(F)(F)F)c2Cl)nc1C#N : 75
N#Cc1nc(-c2cc(Cl)cc(Cl)c2Cl)oc1NCCCCO : 100
N#Cc1nc(-c2cc(Cl)cc(Cl)c2Cl)oc1NCC#CCOCc1ccc(CCN2CCOCC2)cc1 : 100
N#Cc1nc(-c2cc(Cl)cc(Cl)c2Cl)oc1NCCOCCN1CCC(F)C1 (centres unmarked) : 49
Cc1c(Cl)cc(Cl)cc1-c1nc(C#N)c(NCCCCO)o1 : 68

Next:
Ask | Data request, read-out Emax, for N#Cc1nc(-c2cc(Cl)cc(Cl)c2Cl)oc1NCC#CCOCc1ccc(C(=O)O)cc1
Reply | 100

====

A collection of molecules and their measured IC50
Target: h12/15-LOX (Homo sapiens (Human), UniProt P16050)
Test: 12/15-LOX enzyme inhibition IC50 assay (Examples 1 and 2)
Structures can show the parent of a compound that is named as a salt.
Form entry: value (nM) — number only.

Observe how each entry below is paired with its result.
N#Cc1nc(-c2cc(Cl)cc(Cl)c2Cl)oc1NCC#CCOCc1ccncc1 [Compound 88] : 81
N#Cc1nc(-c2cc(Cl)cc(Cl)c2OC(F)F)oc1NCCOCCO [Compound 29] : 3000
N#Cc1nc(-c2cc(Cl)cc(Cl)c2Cl)oc1NCCOCCOc1ccnc(F)c1 [Compound 102] : 110
CN(C)CCCOC(=O)N(C)c1oc(-c2cc(Cl)cc(Cl)c2Cl)nc1C#N [Compound 52, hydrochloride] : 1400
CN(CCOCCNc1oc(-c2cc(Cl)cc(Cl)c2Cl)nc1C#N)c1ccccc1 [Compound 95] : 260

Ask | Fill blank: measured IC50 of the molecule N#Cc1nc(-c2cc(Cl)cc(Cl)c2Cl)oc1NCC#CCOCc1ccccc1 [Compound 43] is ____.
Reply | 230

Ask | Looking for the measured IC50 of CNc1oc(-c2cc(C#N)cc(Cl)c2Cl)nc1C#N [Compound 13] , can you help?
Reply | 1100

Ask | So what does the record say about IC50 for CNc1oc(-c2cc(Cl)cc(Cl)c2OC)nc1C#N [Compound 5] ?
Reply | 180
